# test_details: qHTS RealTime-Glo MT Cell Viability Assay in HEK293 cells - 40 hour (AID 1224874); note: potency is the fitted concentration of half-maximal effect; nearly all actives have a fitted effect of over 50% in size
# details: RealTime-Glo luminescence
Inconclusive results are not listed. Activity calls are given as the source filed them. Calls come from the whole dose curve; as a rule, active = well fitted cell-killing curve with a large enough effect in the repeat runs; inconclusive = weak or mixed curves, or effect the other way; inactive = flat fitted curve, though single readings scatter.
reported_endpoint: Potency

Some molecules with recorded Potency:
molecule=CCCCCCCCCCCCN(CCO)CCO reported_endpoint=Potency result_value="38.7 µM (active)"
molecule="c1cc(OCC2CO2)cc(OCC2CO2)c1 (stereo unspecified)" reported_endpoint=Potency result_value="12.2 µM (active)"
molecule="CCCC(CC)CCCCCCCN (stereo unspecified)" reported_endpoint=Potency result_value="56.3 µM (active)"
molecule="COC(=O)C1=C(C)NC(C)=C(C(=O)OCCCN2CCC(c3ccccc3)(c3ccccc3)CC2)C1c1cccc([N+](=O)[O-])c1 (stereo unspecified)" reported_endpoint=Potency result_value="10.7 µM (active)"
molecule=CC=O reported_endpoint=Potency result_value="0.324 µM (active)"

# batch size: 3; output Potency per entry
1. O=C1NCN(c2ccccc2)C12CCN(CCCC(c1ccc(F)cc1)c1ccc(F)cc1)CC2
2. Clc1ccc(C(Cn2ccnc2)OCc2ccsc2Cl)c(Cl)c1 (stereo unspecified)
3. CCCCCCCC/C=C\CCCCCCCC(=O)NCc1ccc(O)c(OC)c1

Ans:
1. 19 µM (active)
2. 16.9 µM (active)
3. 4.25 µM (active)

For each entry beneath this line, provide reported Potency.
1. CCCCCCOc1cc(C)c(O)c(C)c1C
2. C[C@@]12C(=O)OC(=O)[C@]1(C)C1CCC2O1

Ans:
1. 19.7 µM (active)
2. 6.01 µM (active)

Batch request: Potency for each of the following molecules.
1. Cc1ccc(CCn2c3c(c4cc(Cl)ccc42)CN(C)CC3)cn1
2. CC(NCCC(c1ccccc1)c1ccccc1)c1ccccc1 (stereo unspecified)
3. CC1CCCCN1CCCOC(=O)c1ccc(OC2CCCCC2)cc1 (stereo unspecified)

Ans:
1: 21.3 µM (active); 2: 16.9 µM (active); 3: 21.3 µM (active)

List the reported Potency of each molecule below.
1. Cc1cccc(C)c1NC(=O)CN1CCN(CCCC(c2ccc(F)cc2)c2ccc(F)cc2)CC1
2. CNC(=O)c1cc(Oc2ccc(NC(=O)Nc3ccc(Cl)c(C(F)(F)F)c3)cc2)ccn1
3. NC1(c2ccc(-c3nc4ccn5c(=O)[nH]nc5c4cc3-c3ccccc3)cc2)CCC1

Ans:
["10.7 µM (active)", "3.01 µM (active)", "1.07 µM (active)"]

====

# test_details: qHTS assay to identify small molecule antagonists of the estrogen receptor beta (ER-beta) signaling pathway - cell viability counter screen (AID 1259382);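 note: HEK293T cells carrying ER-beta-UAS-bla reporter stimulated with estradiol; % is set by controls: 0 for no effect and ±100 for the full control effect; nearly all actives have a fitted effect of over 55% in size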
# details: ER-beta-UAS-bla HEK293T viability, CellTiter-Glo luminescence, 16 h; series mostly up to 92.4 µM
Results filed as inconclusive are left out. Calls of active or inactive are those of the source. The call rests on the fitted dose curve; in most records, active means well fitted cell-killing curve with a large enough effect in the repeat runs; inconclusive means weak or mixed curves; inactive means flat fitted curve, though single readings scatter.
Record form. Attribute: activity change, negative = cytotoxicity. Fill in for each entry.

Known results for molecules:
molecule=N[C@@H](CSSC[C@H](N)C(=O)O)C(=O)O result_value="-5.72% [at 0.349 µM] (inactive)"
molecule="CCC(=O)CC(C)CC (stereo not drawn)" result_value="9.77% [at 0.349 µM] (inactive)"
molecule=COc1cc(C(C)C)c2c(c1)S(=O)(=O)N(COc1cc(=O)n3cccc(OCCN4CCCCC4)c3n1)C2=O result_value="-17.6% [at 19 µM] (inactive)"
molecule=O=S(O)O result_value="4.33% [at 19 µM] (inactive)"
molecule=C=C/C=C/C=C/CCCCC result_value="0.024% [at 19 µM] (inactive)"

Could I get activity change, negative = cytotoxicity for every one of these entries?
1. CCN1CCN(c2cc(-c3ccc(F)cc3)c3c(n2)CCCCCC3)CC1
2. C=CC(=C)CC/C=C(\C)CCC=C(C)C

Ans:
1. -0.898% [at 19 µM] (inactive)
2. -3.14% [at 19 µM] (inactive)

Q: // query activity change, negative = cytotoxicity value for entry O=S(=O)(O)c1cc(S(=O)(=O)O)c2ccc3c(S(=O)(=O)O)cc(S(=O)(=O)O)c4ccc1c2c43
Ans: 6.71% [at 19 µM] (inactive)

====

# test_details: qHTS assay to identify small molecule agonists of the constitutive androstane receptor (CAR) signaling pathway - cell viability counter screen (AID 1224836); note: nearly all actives have a fitted effect of over 45% in size
# details: HepG2-CYP2B6-hCAR viability, CellTiter-Fluor, 23 h, PK11195 added to every well; series mostly up to 92.4 µM
# From the text: U.S. Tox21 Program National Center for Advancing Translational Sciences [NCATS] NIH Chemical Genomics Center [NCGC] U.S. Environmental Protection Agency [EPA] National Institutes of Environmental Health Sciences [NIEHS] National Toxicology Program [NTP] U.S. Food and Drug Administration [FDA] […] Tox21 Assay Protocol Summary: A double-stable (hCAR and CYP2B6-2.2kb) transfected cell line, derived from human hepatoma (HepG2) cells, was utilized for the duration of the quantitative high-throughput screens. […]
Records with an inconclusive call do not appear. The source made the active and inactive calls. Calls come from the whole dose curve; as a rule, active = well fitted cell-killing curve with a large enough effect in the repeat runs; inconclusive = weak or mixed curves, or effect the other way; inactive = flat fitted curve, though single readings scatter.
Thanks in advance; please answer with one of these: Yes for active, No for inactive

See these solved cases before continuing.
compound=OCCN1CN(CCO)CN(CCO)C1 category=No
compound="CC(COC(=O)c1ccccc1)OC(=O)c1ccccc1 (stereo not given)" category=No
compound="C#CC(O)CCC (stereo not given)" category=No
compound=CCCCCCOc1cc(C)c(O)c(C)c1C category=No

Q: What outcome does the record of this test show for CC1=CP(=O)(c2ccccc2)CC1 (stereo not given) ?
Ans: No

Q: Query: recorded result category for CCN(CC)CCSC(=O)C(c1ccccc1)c1ccccc1 in this test
Ans: No

Q: Per the records of this test, what outcome belongs to Cc1cccc(N(C)C)c1 ?
Ans: No

Q: Per the records of this test, what outcome belongs to C[Si](C)O[Si](C)C ?
Ans: No

Q: Dear all, I need the recorded test outcome for S=P(N1CC1)(N1CC1)N1CC1 , thank you.
Ans: No

Q: What classification did O=C1NCCN1CCN1CCC(c2cn(-c3ccc(F)cc3)c3ccc(Cl)cc23)CC1 end up with in this test?
Ans: Yes

Q: I'd appreciate the recorded outcome for Cc1cccc(C)n1 from this test.
Ans: No

====

# test_details: A CellTox Green Cytotoxicity Assay to monitor cytotoxicity in HEK293 cells - 24 hour (AID 1224875); note: nearly all actives have a fitted effect of over 45% in size; note: potency is the fitted concentration of half-maximal effect
# details: CellTox Green fluorescence; series mostly up to 76.8 µM
Inconclusive results are not listed. Activity calls are given as the source filed them. Calls follow the shape of the dose curve; as a rule, active = well fitted activation curve with a large enough effect in the repeat runs; inconclusive = weak or mixed curves; inactive = flat fitted curve, though single readings scatter.
reported_endpoint: Potency

Look over these answered cases.
molecule=COc1ccc2sc(C(=O)Nc3nnn[nH]3)c(OC(C)C)c2c1 result_value=inactive
molecule=CCOC(=O)[C@@](C)(N)Cc1ccc(O)c(O)c1 result_value=inactive
molecule="CN(C)CCOC(c1ccccc1)c1ccccc1 (tested in a mixture with another compound)" result_value=inactive
molecule=C=CC(=C)CCC=C(C)C result_value=inactive

Below are 2 molecules. Give each one its Potency.
1. COc1cccc(CCc2ccccc2OCC(CN(C)C)OC(=O)CCC(=O)O)c1 (stereo unspecified)
2. CCN(CC)CCOc1ccc(C(O)(Cc2ccc(Cl)cc2)c2ccc(C)cc2)cc1 (stereo unspecified)

Ans:
1: inactive; 2: 23.9 µM (active)

====

# test_details: qHTS assay for small molecule disruptors of the mitochondrial membrane potential - cell viability (AID 720634); note: nearly all actives have a fitted effect of over 20% in size
# details: HepG2 viability, ATP luminescence (CellTiter-Glo), 1 h; series mostly up to 83.2 µM
Records with an inconclusive call do not appear. Activity calls are given as the source filed them. Calls follow the shape of the full dose curve.
Bench note: report the call from active, inactive

A selection of reference data follows.
compound=CNCC[C@H](Oc1cccc2ccccc12)c1cccs1 category=inactive
compound=Cc1ccc(N)cc1O category=inactive
compound=c1ccc(Nc2cccc3ccccc23)cc1 category=active

Q: Lab log entry: CO[C@H]1C=CO[C@@]2(C)Oc3c(C)c(O)c4c(O)c(cc(O)c4c3C2=O)NC(=O)/C(C)=C\C=C/[C@H](C)[C@H](O)[C@@H](C)[C@@H](O)[C@@H](C)[C@H](OC(C)=O)[C@@H]1C — outcome as called in the assay?
Ans: inactive

Q: Name the outcome recorded for N[C@@H](CSSC[C@H](N)C(=O)O)C(=O)O in the assay.
Ans: inactive

Q: Recorded test outcome, item CCCOc1sc(C(=O)N2CCC(c3cc(CN)ccc3F)CC2)c(C)c1Br
Ans: inactive

Q: How was Nc1cc(Cl)c([N+](=O)[O-])cc1O classified in this test?
Ans: inactive

Q: Given CCCCCCCCCCOCC(O)CN (centres undefined) , state the outcome it received in this test.
Ans: inactive

Q: Record request — test call for CCCCCCCOC(=O)c1ccc(O)cc1
Ans: active

====

# test_details: qHTS assay to identify small molecule agonists of the peroxisome proliferator-activated receptor delta (PPARd) signaling pathway - cell viability counter screen (AID 743211); note: nearly all actives have a fitted effect of over 55% in size; note: potency is the fitted concentration of half-maximal effect
# details: PPARd-bla HEK293H viability, CellTiter-Glo luminescence, 17 h; series mostly up to 62.6 µM
Results filed as inconclusive are left out. The source made the active and inactive calls. Calls follow the shape of the dose curve; as a rule, active = well fitted cell-killing curve with a large enough effect in the repeat runs; inconclusive = weak or mixed curves; inactive = no such curve, though single readings can be large or run the other way.
reported_endpoint: Potency

compound=CCC1(c2cnc[nH]2)Cc2ccccc2C1 result_value=inactive
compound=COCC(=O)O[C@]1(CCN(C)CCCc2nc3ccccc3[nH]2)CCc2cc(F)ccc2[C@@H]1C(C)C result_value="11.9 µM (active)"
compound=Nc1ccc2cc3ccc(N)cc3nc2c1 result_value=inactive
compound=Nc1ncnc2c1ncn2[C@@H]1O[C@H](COP(=O)(O)O)[C@@H](O)[C@H]1O result_value="10.6 µM (active)"
compound=Cc1cn[nH]c1 result_value=inactive
compound=CC(C)(C)c1cc(/C=C2\SC(=N)NC2=O)cc(C(C)(C)C)c1O result_value="21.9 µM (active)"
compound=SCCCCCCCCS result_value=inactive
compound=Cc1c(C(=O)O)cccc1[N+](=O)[O-] result_value=inactive
compound="CCCCCCCCCCOCC(O)CN (configuration not stated)" result_value="26.6 µM (active)"
compound=O=C(O)CCn1c2c(c3ccccc31)C[C@H](NS(=O)(=O)c1ccc(F)cc1)CC2 result_value=inactive

Record Potency for all entries; do not skip any.
1. CN1[C@@H]2CC[C@@H]1CC(OC(=O)C(CO)c1ccccc1)C2 (some centres not stated)
2. CN(C)CCCN1c2ccccc2Sc2ccc(C(F)(F)F)cc21
3. Cn1cnc2ncnc(N)c21
4. CCCCCCCC/C=C\CCCCCCCC(=O)NCc1ccc(O)c(OC)c1
5. O=C(Nc1ccc(Cl)c(Cl)c1)c1cc(Cl)cc(Cl)c1O

Ans:
1: inactive; 2: 29.8 µM (active); 3: inactive; 4: 23.7 µM (active); 5: 5.49 µM (active)

For the 2 compounds below, give their Potency values.
1. CCCSS/C(CCO)=C(\C)N(C=O)Cc1cnc(C)nc1N
2. O=C1c2c(O)ccc([N+](=O)[O-])c2C(=O)c2c([N+](=O)[O-])ccc(O)c21

Ans:
["inactive", "12.2 µM (active)"]
